# System: Klebsiella aerogenes DSM 30053
# Assay Procedure: fold change of Cadaverine concentration vs plate DMSO controls (fold change (ratio)); higher = more amine produced, active = hit call of the paper (significant change in both replicates, either direction)
# Experimental Parameters: incubation time: 27 h, anaerobic, 37 °C
Where a name gives a salt, the structure may show the parent alone.
Experimental Readout: fold change of Cadaverine concentration

>>> reported_result("CCN1CCN(Cc2ccc(Nc3ncc(F)c(-c4cc(F)c5nc(C)n(C(C)C)c5c4)n3)nc2)CC1 [Abemaciclib] (20 µM)")
0.993
>>> reported_result("C[C@]1(Cn2ccnn2)[C@H](C(=O)O)N2C(=O)C[C@H]2S1(=O)=O [Tazobactam] (20 µM)")
1.03
>>> reported_result("CO/N=C(\\C(=O)N[C@@H]1C(=O)N2C(C(=O)[O-])=C(C[n+]3cccc4c3CCC4)CS[C@H]12)c1csc(N)n1 [Cefpirome sulfate] (20 µM)")
1.09
>>> reported_result("CCN(CC)Cc1cc(Nc2ccnc3cc(Cl)ccc23)ccc1O [Amodiaquine dihydrochloride dihydrate] (20 µM)")
0.978
>>> reported_result("Cn1cc(C(=O)Nc2ccc(F)cc2-c2ccc(Cl)c(Cl)c2)c(C(F)F)n1 (20 µM)")
0.986
>>> reported_result("COC(=O)[C@H](c1ccccc1Cl)N1CCc2sccc2C1 [Clopidogrel] (20 µM)")
0.996
>>> reported_result("COc1cc([C@@H]2c3cc4c(cc3[C@@H](O[C@@H]3O[C@@H]5CO[C@@H](C)O[C@H]5[C@H](O)[C@H]3O)[C@H]3COC(=O)[C@H]23)OCO4)cc(OC)c1O [Etoposide] (20 µM)")
1.03

###

# Tested on: Klebsiella aerogenes DSM 30053
# Assay Procedure: growth (OD595) fold change vs plate DMSO controls (fold change (ratio)); higher = more growth
# Experimental Parameters: incubation time: 27 h, anaerobic, 37 °C
Counter-ions that a name gives are not always drawn.
Experimental Readout: growth

>>> reported_result("O=c1[nH]c(=O)n([C@H]2C[C@H](O)[C@@H](CO)O2)cc1/C=C/Br [Brivudine] (20 µM)")
1.02
>>> reported_result("Cc1ccc(S(=O)(=O)NC(=O)NN2CCCCCC2)cc1 [Tolazamide] (20 µM)")
1.04
>>> reported_result("CC(=O)Oc1cc(C(F)(F)F)ccc1C(=O)O [Triflusal] (20 µM)")
0.952
>>> reported_result("CC(C(=O)O)c1ccc2c(c1)Cc1cccnc1O2 (stereo unspecified) [Pranoprofen] (20 µM)")
1.03
>>> reported_result("c1ccc2c(CC3=NCCN3)cccc2c1 [Naphazoline hydrochloride] (20 µM)")
0.644
>>> reported_result("Nc1nc2ccc(OC(F)(F)F)cc2s1 [Riluzole hydrochloride] (20 µM)")
1.06
>>> reported_result("CC1=C(C(=O)O)N2C(=O)[C@@H](NC(=O)[C@H](N)c3ccc(O)cc3)[C@H]2SC1 [Cefadroxil] (20 µM)")
1
>>> reported_result("CCCOc1ccccc1-c1nc2[nH]nnc2c(=O)[nH]1 [Zaprinast] (20 µM)")
1
>>> reported_result("CCC(=O)O[C@]1(C(=O)SCF)[C@H](C)C[C@H]2[C@@H]3C[C@H](F)C4=CC(=O)C=C[C@]4(C)[C@@]3(F)[C@@H](O)C[C@@]21C [Fluticasone propionate] (20 µM)")
1.03
>>> reported_result("CC(C)OC(=O)CCC/C=C\\C[C@@H]1[C@@H](CC[C@@H](O)CCc2ccccc2)[C@H](O)C[C@@H]1O [Latanoprost] (20 µM)")
0.984
>>> reported_result("O=C(O)CN(CCN(CC(=O)O)CC(=O)O)CCN(CC(=O)O)CC(=O)O [Pentetic acid] (20 µM)")
1.04
>>> reported_result("COCCOC(=O)C1=C(C)NC(C)=C(C(=O)OC(C)C)C1c1cccc([N+](=O)[O-])c1 (stereo unspecified) [Nimodipine] (20 µM)")
1.03
>>> reported_result("C[C@H](O)C(=O)Nc1c(I)c(C(=O)NC(CO)CO)c(I)c(C(=O)NC(CO)CO)c1I [Iopamidol] (20 µM)")
1.05
>>> reported_result("CC(C)(O/N=C(\\C(=O)N[C@@H]1C(=O)N2C(C(=O)[O-])=C(C[n+]3ccccc3)CS[C@H]12)c1csc(N)n1)C(=O)O [Ceftazidime pentahydrate] (20 µM)")
0.595
>>> reported_result("CN1CCC[C@@H]1Cc1c[nH]c2ccc(CCS(=O)(=O)c3ccccc3)cc12 [Eletriptan] (20 µM)")
0.965
>>> reported_result("C[C@]12CC[C@@H]3c4ccc(OS(=O)(=O)O)cc4CC[C@H]3[C@@H]1CCC2=O [Estropipate piperazine salt] (20 µM)")
1.01
>>> reported_result("CCOC(=O)[N-]c1c[n+](N2CCOCC2)no1 [Molsidomine] (20 µM)")
0.98
>>> reported_result("CCCCCCCCCCCCCCCCCCCCCC(=O)Nc1ccn([C@@H]2O[C@H](CO)[C@@H](O)[C@@H]2O)c(=O)n1 [Enocitabine] (20 µM)")
0.98
>>> reported_result("COc1ccc(C2C(=O)c3ccccc3C2=O)cc1 [Anisindione] (20 µM)")
0.965
>>> reported_result("Cc1cc(C#N)cc(C)c1Oc1nc(Nc2ccc(C#N)cc2)nc(N)c1Br [Etravirine] (20 µM)")
1.13
>>> reported_result("CCc1ccc(C(=O)C(C)CN2CCCCC2)cc1 (stereo unspecified) [Eperisone Hydrochloride] (20 µM)")
0.959
>>> reported_result("C[C@@H]1CN(c2c(F)c(N)c3c(=O)c(C(=O)O)cn(C4CC4)c3c2F)C[C@H](C)N1 [Sparfloxacin] (20 µM)")
0.286
>>> reported_result("COC(=O)C1=C(C)NC(C)=C(C(=O)O[C@H]2CCN(Cc3ccccc3)C2)[C@H]1c1cccc([N+](=O)[O-])c1 [Barnidipine Hydrochloride] (20 µM)")
0.991
>>> reported_result("CN(C)/N=N/c1[nH]cnc1C(N)=O [Dacarbazine] (20 µM)")
1.06
>>> reported_result("O=C(O)COCCN1CCN(C(c2ccccc2)c2ccc(Cl)cc2)CC1 (stereo unspecified) [Cetirizine dihydrochloride] (20 µM)")
1.04
>>> reported_result("Cn1cnc([N+](=O)[O-])c1Sc1ncnc2[nH]cnc12 [Azathioprine] (20 µM)")
0.993
>>> reported_result("Cn1c(=O)c2c(ncn2CCO)n(C)c1=O [Etofylline] (20 µM)")
1.01
>>> reported_result("COc1ccc2cc([C@H](C)C(=O)O)ccc2c1 [(S)-Naproxen] (20 µM)")
1.02
>>> reported_result("CCOC(=O)NNc1nncc2ccccc12 [Todralazine hydrochloride] (20 µM)")
1.04
>>> reported_result("NC(=O)c1cccnc1 [Nicotinamide] (20 µM)")
0.964
>>> reported_result("COc1ccc2[nH]c([S+]([O-])Cc3ncc(C)c(OC)c3C)nc2n1 (stereo unspecified) [Tenatoprazole] (20 µM)")
1.04

###

# Test system: Escherichia coli IAI1
# Assay Procedure: growth (OD595) fold change vs plate DMSO controls (fold change (ratio)); higher = more growth
# Experimental Parameters: incubation time: 27 h, anaerobic, 37 °C
Structures can show the parent of a compound that is named as a salt.
The entries below come with measured growth values attached.
Experimental Readout: growth

>>> reported_result("COc1cc2nc(N(C)CCCNC(=O)C3CCCO3)nc(N)c2cc1OC (stereo not drawn) [Alfuzosin hydrochloride] (20 µM)")
1.01
>>> reported_result("O=C1Cc2cc(CCN3CCN(c4nsc5ccccc45)CC3)c(Cl)cc2N1 [Ziprasidone hydrochloride monohydrate] (20 µM)")
1.06
>>> reported_result("N=C(N)c1ccc(OCCCCCOc2ccc(C(=N)N)cc2)cc1 [Pentamidine isethionate] (20 µM)")
1.05
>>> reported_result("CN(C)CCCN1c2ccccc2CCc2ccccc21 [Imipramine hydrochloride] (20 µM)")
1.15
>>> reported_result("CNS(=O)(=O)Cc1ccc2[nH]cc(CCN(C)C)c2c1 [Sumatriptan succinate] (20 µM)")
0.977
>>> reported_result("CC(C)(Sc1cc(C(C)(C)C)c(O)c(C(C)(C)C)c1)Sc1cc(C(C)(C)C)c(O)c(C(C)(C)C)c1 [Probucol] (20 µM)")
1.06
>>> reported_result("CCN1C(=O)NC(c2ccccc2)C1=O (stereo not drawn) [Ethotoin] (20 µM)")
0.999
>>> reported_result("CN1CCN(c2c(F)cc3c(=O)c(C(=O)O)cn4c3c2SCC4)CC1 [Rufloxacin] (20 µM)")
0.0641

###

The entries below come with measured fold change of 2-Phenylethylamine concentration values attached.
# System: Ruminococcus gnavus DSM 108212
# Assay Procedure: fold change of 2-Phenylethylamine concentration vs plate DMSO controls (fold change (ratio)); higher = more amine produced, active = hit call of the paper (significant change in both replicates, either direction)
# Experimental Parameters: incubation time: 27 h, anaerobic, 37 °C
Where a name gives a salt, the structure may show the parent alone.
Experimental Readout: fold change of 2-Phenylethylamine concentration

>>> reported_result("CCC(C)(C)c1ccc(CC(C)CN2C[C@@H](C)O[C@@H](C)C2)cc1 (stereo partly drawn) [Amorolfine hydrochloride] (20 µM)")
0.88
>>> reported_result("CCOC(N)=O [Urethane] (20 µM)")
0.926
>>> reported_result("CCCCCCNC(=O)n1cc(F)c(=O)[nH]c1=O [Carmofur] (20 µM)")
1.01
>>> reported_result("COc1ccc(CN(CCN(C)C)c2ccccn2)cc1 [Pyrilamine maleate] (20 µM)")
0.963
>>> reported_result("Nc1ccc(S(=O)(=O)Nc2ccc(Cl)nn2)cc1 [Sulfachloropyridazine] (20 µM)")
1.14
>>> reported_result("CN(C)CCCN1c2ccccc2[S+]([O-])c2ccc(Cl)cc21 (stereo not drawn) [Chlorpromazine Sulfoxide] (20 µM)")
1.1
>>> reported_result("CC(=O)OCC(=O)[C@@]1(O)CC[C@H]2[C@@H]3CCC4=CC(=O)CC[C@]4(C)[C@@]3(F)[C@@H](O)C[C@@]21C [Fludrocortisone acetate] (20 µM)")
0.966
>>> reported_result("CC(=O)Oc1cc2c(s1)CCN(C(C(=O)C1CC1)c1ccccc1F)C2 (stereo not drawn) [Prasugrel] (20 µM)")
0.965
